Biological target: D(3) dopamine receptor (Homo sapiens)
Assay: qHTS of D3 Dopamine Receptor Agonist: D3 Dopamine Receptor B-arrestin Agonist Confirmatory Assay; note: nearly all actives have a fitted effect of over 70% in size;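 for activation: 100% = dopamine control response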
Conditions: DiscoveRx D3 beta-arrestin cells, luminescence, 90 min; series mostly up to 76.9 µM
In all, about 2,300 compounds went through this assay and about 95 (4%) were called active. Not shown: some 17% with an inconclusive outcome. Calls come from the whole dose curve; as a rule, active = well fitted activation curve with a large enough effect; inconclusive = small, poorly fitted or top-dose-only effect; inactive = flat fitted curve, though single readings scatter. For the sample, actives were picked, then their nearest neighbours and some compounds at random.
Bench note: report the call from active, inactive

Take a look at these entries with their results.
# Compound, Category
measured = [
    ("Cc1cc(C(=O)NNC(=O)c2ccccc2O)c(C)o1", "inactive"),
    ("O=C(CN1CCN(S(=O)(=O)c2cc(Cl)ccc2Cl)CC1)c1ccc(O)c(O)c1", "active"),
    ("O=C(CCN1CCN(c2ccccc2)CC1)NNC(=S)Nc1ccccc1", "inactive"),
    ("O=C(NCCCN1CCN(c2ccccc2F)CC1)C1CCC(=O)N1C1CCCCC1 (stereo not drawn)", "inactive"),
]

Then this compound:
Asked: Per the records of this test, what outcome belongs to O=C(C1CC(=O)N(c2ccc(F)cc2)C1)N1CCN(c2ccccc2)CC1 (stereo not drawn) ?
Given back: inactive

---

Target: D(3) dopamine receptor (Homo sapiens) (UniProt P35462)
Sequence (P35462 whole entry, looked up): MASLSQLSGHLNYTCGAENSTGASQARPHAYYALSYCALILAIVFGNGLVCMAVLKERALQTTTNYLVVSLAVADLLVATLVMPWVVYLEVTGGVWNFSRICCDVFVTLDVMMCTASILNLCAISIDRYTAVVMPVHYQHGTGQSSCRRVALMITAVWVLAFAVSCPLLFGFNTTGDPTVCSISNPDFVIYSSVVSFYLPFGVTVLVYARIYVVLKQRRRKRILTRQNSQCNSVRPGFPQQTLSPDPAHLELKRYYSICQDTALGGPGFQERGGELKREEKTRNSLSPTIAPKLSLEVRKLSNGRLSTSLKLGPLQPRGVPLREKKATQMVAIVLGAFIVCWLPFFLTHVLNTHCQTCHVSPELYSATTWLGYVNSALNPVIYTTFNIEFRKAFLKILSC
Assay: qHTS of D3 Dopamine Receptor Agonist: D3 Dopamine Receptor B-arrestin Agonist Confirmatory Assay; note: nearly all actives have a fitted effect of over 70% in size;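 for activation: 100% = dopamine control response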
Conditions: DiscoveRx D3 beta-arrestin cells, luminescence, 90 min; series mostly up to 76.9 µM
Out of some 2,300 compounds screened, about 95 (4%) were called active. Another 17% or so got no clear call; they are omitted. Calls follow the shape of the dose curve; as a rule, active = well fitted activation curve with a large enough effect; inconclusive = small, poorly fitted or top-dose-only effect; inactive = flat fitted curve, though single readings scatter. This excerpt belongs to a sample that is enriched for actives.
Bench note: report the call from 1 for active, -1 for inactive

# Compound, Category
data = [
    ("CC(=O)OC(C)C[N+](C)(C)C (centres undefined)", -1),
    ("O=C(c1ccc2c(c1)OCCO2)C1CCN(S(=O)(=O)c2cccc(F)c2)CC1", -1),
    ("Cc1ccccc1Nc1nc(N)nc(CN2CCN(c3ccccn3)CC2)n1", -1),
    ("Cc1cc(C)n2nc(C(=O)N3CCN(Cc4ccc5c(c4)OCO5)CC3)nc2n1", -1),
    ("O=C(CN1CCN(c2ncccn2)CC1)Nc1ccccc1C(F)(F)F", -1),
]

Asked: Per the records of this test, what outcome belongs to CC(C)(C)n1ncc2c(=O)n(Cc3c(Cl)cccc3Br)cnc21 ?
Given back: -1

Asked: Per the records of this test, what outcome belongs to CN1CCC(CN)(N2CCN(c3ccccc3)CC2)CC1 ?
Given back: -1

Asked: Per the records of this test, what outcome belongs to O=C(CN1CCN(c2ccccn2)CC1)NC1CCCCC1 ?
Given back: -1

---

Target: D(3) dopamine receptor (Homo sapiens)
Test: qHTS of D3 Dopamine Receptor Agonist: D3 Dopamine Receptor B-arrestin Agonist Confirmatory Assay; note: nearly all actives have a fitted effect of over 70% in size;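 for activation: 100% = dopamine control response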
Conditions: DiscoveRx D3 beta-arrestin cells, luminescence, 90 min; series mostly up to 76.9 µM
The whole screen tested about 2,300 compounds, of which about 95 (4%) were called active. About 17% were inconclusive and are not listed. The call rests on the fitted dose curve; in most records, active means well fitted activation curve with a large enough effect; inconclusive means small, poorly fitted or top-dose-only effect; inactive means flat fitted curve, though single readings scatter. For the sample, actives were picked, then their nearest neighbours and some compounds at random.
Bench note: report the call from active, inactive

Take a look at these entries with their results.
# Molecule, Category
rows = [
    ("CC(C)c1ccc2c(c1)c(SC(C)(C)C)c(CC(C)(C)C(=O)O)n2Cc1ccc(Cl)cc1", "inactive"),
    ("CN1CCN(S(=O)(=O)c2cccc(C(=O)Nc3sccc3C#N)c2)CC1", "inactive"),
]

Asked: Per the records of this test, what outcome belongs to O=C1c2ccccc2S(=O)(=O)N1CC(O)Cn1c2ccccc2c2ccccc21 (stereo unspecified) ?
Given back: inactive

Asked: Per the records of this test, what outcome belongs to COc1cccc(NC(=O)C2CCCN(c3ncnc4c3nc3n4CCCCC3)C2)c1 (stereo unspecified) ?
Given back: inactive

Asked: Per the records of this test, what outcome belongs to COc1ccc([C@H]2CC(=O)C=C(c3ccc(OC(F)(F)F)cc3)C2)cc1OC ?
Given back: inactive

Asked: Per the records of this test, what outcome belongs to O=C1C=C(c2cccc(Br)c2)C[C@@H](c2ccc(F)cc2)C1 ?
Given back: inactive

Asked: Per the records of this test, what outcome belongs to [O-][N+]12CCCCC1CCCC2CO (stereo unspecified) ?
Given back: inactive

Asked: Per the records of this test, what outcome belongs to OCC[C@H]1C[C@H](O)[C@@H](O)[C@]2(Cc3ccccc3CO2)O1 ?
Given back: inactive

Asked: Per the records of this test, what outcome belongs to Cc1c(CC(=O)N2CCN(C(=O)C3COc4ccccc4O3)CC2)c(=O)oc2c(O)c(O)ccc12 (stereo unspecified) ?
Given back: active

Asked: Per the records of this test, what outcome belongs to CCC(=O)Nc1ccc(C(=O)N2CCN(C(=O)c3ccco3)CC2)cc1 ?
Given back: inactive

Asked: Per the records of this test, what outcome belongs to CCOC(=O)[C@H]1[C@H]2COc3ccc(C)cc3[C@@H]2N2C(=O)CN(Cc3ccc(F)cc3)C(=O)[C@@]12C ?
Given back: inactive

src = PubChem BioAssay AID720506
